- Tested on: VchCAST RNA-guided transposition machinery (E. coli BL21(DE3) host, lacZ target)
- assay method text: relative integration efficiency (T-LR orientation) vs wild-type transposon end (log2 (normalized fold change)); transposon end mutated: right end (5 bp flank + 75 bp right end); higher = more efficient transposition
reported property: relative integration efficiency (log2)

For record `ACATTTGTTGATACAACCATAAAATGATAATTACACCCATAAATTGATAATTATCACACCCATAAATTGATATTGCGAGAGATCATAGTCAGACCAACATTGCTACGACCCGTATTCGCACCGACAC` the listed relative integration efficiency (log2) is -0.165

Entry under test: `ACATTTGTTGATACAACCAATAAATGATAATTACACCCATTAATTGATAATAATGACACCGAATTTAACTATAACGCTCTGATCATAGTCAGACCAACATTGCTACGACCCGTATTCGCACCGACAC` . Its relative integration efficiency (log2) was 1.91

Short answer for `ACATTTGTTGATACAACCATTTAATGATAATAACACCCATAAAATGATAATTATCACACCCAATTTAACTATAACGCTCTGATCATAGTCAGACCAACATTGCTACGACCCGTATTCGCACCGACAC` : relative integration efficiency (log2) was 2.01

Form field relative integration efficiency (log2), entry `ACATTTGTTGATACACCCATAAATTGATAATTACACCCATAAATTGATATTGCTCACAACCATATATTGATATCTCCTCTGATCATAGTCAGACCAACATTGCTACGACCCGTATTCGCACCGACAC` : 0.128

For record `ACATTTGTTGATACAACCATAAAATGATAATTACACCCATAAATTGATACGTATCACACCCATAAATTGATATTGCCTCTGATCATAGTCAGACCAACATTGCTACGACCCGTATTCGCACCGACAC` the listed relative integration efficiency (log2) is -0.44

Kindly note the recorded relative integration efficiency (log2) for `ACATTTGTTGATAAAACCATAAAATGATTTTAAGAAACCATAATCTGAAATAATCACACCCATAAATTGATATTGCCTCTGATCATAGTCAGACCAACATTGCTACGACCCGTATTCGCACCGACAC` , which is -1.78

Entry `ACATTTGTTGATACAACCATACCATGATAATTACACCCATACCTTGATAATTATCACACCCATACCTTGATATTGCCTCTGATCATAGTCAGACCAACATTGCTACGACCCGTATTCGCACCGACAC` — recorded relative integration efficiency (log2) = -1.75

The recorded relative integration efficiency (log2) for `ACATTTGTTGATACACCCATAAATTGATAATTACAACCATAAAGTGATATTTATCAGTGGGTATTTAACTATAACGCTCTGATCATAGTCAGACCAACATTGCTACGACCCGTATTCGCACCGACAC` is 2.08

// relative integration efficiency (log2) value for `ACATTTGTCGATACAACCATAAAATGATAATTACACCCATAAATTCATAATTATCACCCCCAATTTAACTATAACGCTCTGATCATAGTCAGACCAACATTGCTACGACCCGTATTCGCACCGACAC` : 1.18

Measured relative integration efficiency (log2) of `ACATTTGTTGATACAACCATAAAATGATAATTACACCCATAAATTGATAATATTCACACCCATAAATTGATATTGCCTCTGATCATAGTCAGACCAACATTGCTACGACCCGTATTCGCACCGACAC` : -0.107

Data point: `ACATTTGTTGATACAACCATAAAATGATCATTACCCCCATCAATTGATAATTATCACACCCAATTTAACTATAACGCTCTGATCATAGTCAGACCAACATTGCTACGACCCGTATTCGCACCGACAC` ; relative integration efficiency (log2) = -0.291

Summary for this sequence, `ACATTTGTTGATACAACCATAAAATGATAATTAATAATTATTTATAATCACCCATAAATTGATAATTATCAACAAACGCCCGGTCGCGGTACTCTGATCATAGTCAGACCAACATTGCTACGACCCG` : relative integration efficiency (log2) is 1.05

Form field relative integration efficiency (log2), entry `ACATTTGTTGATACAACCATAAATACTTAATTACACCCATAAATTGATAATTATCACACCCATAAATTGATATTGCCTCTGATCATAGTCAGACCAACATTGCTACGACCCGTATTCGCACCGACAC` : -2.42

Per the record, `ACATTTGTTGATACAACCATATATTGATATCTCCACCCATAAATTGATAATTATCACACCCATAAATTGATAATTACTCTGATCATAGTCAGACCAACATTGCTACGACCCGTATTCGCACCGACAC` has relative integration efficiency (log2) of -0.06

The recorded relative integration efficiency (log2) for `ACATTTGTCGATACAACCATAAAACGATAATTACACCCATAAATTGATCATTATCACACCCAATTTAACTATAACGCTCTGATCATAGTCAGACCAACATTGCTACGACCCGTATTCGCACCGACAC` is 1.9

relative integration efficiency (log2) for `ACATTTGTTGATACAACCATAAAATGATAATTACACCCATAAATTGATATCACACCCATAAATTGATATTGCCTCTGATCATAGTCAGACCAACATTGCTACGACCCGTATTCGCACCGACACTGAC` is 2.45

Lab note: `ACATTTGTTGATACAACCATAAAATGATAATTACACCCATAAATTTCGCCGGCGACACAAACGCCCGGTCGCGGTAAGAGGATCATAGTCAGACCAACATTGCTACGACCCGTATTCGCACCGACAC` gave relative integration efficiency (log2) of 0.788

Entry `ACATTAGTTGATACAACCATAAAATGATAATTACACCCATAAATTCATAATTATCACACCCAATTTAACTATAACGCTCTGATCATAGTCAGACCAACATTGCTACGACCCGTATTCGCACCGACAC` — recorded relative integration efficiency (log2) = -4.45

# relative integration efficiency (log2) (sequence: `ACATTTGTTGATACAACCATAAAAGGATAATTACACCCATCAATTGATAATTATCCCACCCCATTTAACTATAACGCTCTGATCATAGTCAGACCAACATTGCTACGACCCGTATTCGCACCGACAC` ) is 0.942

Entry `ACATTTGTTGATACAACCATAAAATGGTAATTACACCCATACATTGATAATTATCACACCCAATTTAACTATAACGCTCTGATCATAGTCAGACCAACATTGCTACGACCCGTATTCGCACCGACAC` ; relative integration efficiency (log2) = 0.71
